Would you kindly list IC50 for each of these compounds?
Test system: Wnt pathway (TCF-dependent transcription in HEK293 luciferase reporter cell line with ER-DSH construct)
Experiment: Cellular assay for Wnt pathway activity (luciferase reporter)
Type: cell-based
Settings: Homo sapiens; Wnt pathway inhibition, HEK293 luciferase reporter cells (ER-DSH, TCF promoter), 24 hours incubation, estrogen-induced

// solved cases for IC50 follow
[
  {
    "Compound": "CC(=O)N1CCCC(CNc2cncc(Oc3ccc(F)cc3)n2)C1 (stereo not drawn)",
    "IC50": "1000 to 10000 nM"
  },
  {
    "Compound": "CCc1ccc(Oc2cncc(N(C)CCN(C)C(C)=O)n2)cc1",
    "IC50": "< 200 nM"
  },
  {
    "Compound": "CN(CCC(N)=O)c1cncc(Oc2ccc(F)cc2)n1",
    "IC50": "1000 to 10000 nM"
  },
  {
    "Compound": "CC(=O)N(C)CCN(C)c1cncc(OC2CCCCC2)n1",
    "IC50": "1000 to 10000 nM"
  },
  {
    "Compound": "CCN(CCN(CC)c1cncc(Oc2ccc(F)cc2)n1)C(C)=O",
    "IC50": "200 to 1000 nM"
  }
]

Hi, could you look up IC50 for each item in my list?
1. CC(=O)N(C)CCN(C)c1cncc(Oc2c(F)cc(Br)cc2F)n1
2. CC(=O)N(C)CCN(C)c1cncc(Oc2ccc(C#N)cc2)n1
3. CC(=O)N(C)CCN(C)c1cncc(Oc2ccc(-c3ccc(CCN)cc3)cc2)n1
4. CC(=O)N(C)CCN(C)c1cncc(Oc2ccc(-c3ncccn3)cc2)n1
5. CC(=O)N(C)CCN(C)c1cncc(Oc2ccc(-c3cccc(C#N)n3)cc2)n1
6. CNCc1ccc(-c2ccc(Oc3cncc(N(C)CCN(C)C(C)=O)n3)cc2)cn1

result:
["< 200 nM", "< 200 nM", "< 200 nM", "200 to 1000 nM", "< 200 nM", "< 200 nM"]
